growth listing for selected compounds.
# Tested on: OVCAR-5 ovarian
# Assay text: NCI-60 one-dose screen, 48 h (100 = growth as untreated, 0 = no growth, -100 = all killed)
# Assay conditions: 10 µM unless noted
The panel holds about 83,000 compounds, 20% with a hit somewhere; the sample as a whole holds those more often.
Readout label: growth (%)

>>> experimental_result("CCC(Br)(CC)C(=O)NC(N)=O")
101
>>> experimental_result("C/C(=N/OC(=O)N(C)C)c1ccc(Cl)c(Cl)c1")
100
>>> experimental_result("Cc1cc(N(CCCl)CCCl)ccc1C=Nc1ccc(-c2csc(-c3ccccc3)n2)cc1")
120
>>> experimental_result("O=[N+]([O-])c1ccc(CI)cc1")
96.8
>>> experimental_result("COC(=O)[C@@H](C)C[C@H](Cc1ccccc1)NC(=O)c1cccc([C@@H](C[C@H](C(C)C)N(C)C(=O)[C@@H](NC(=O)[C@H]2CCCCN2C)C2CC2)OC(C)=O)n1")
38.2
>>> experimental_result("COc1ccc(N)cc1OC")
104
>>> experimental_result("CCN1C(=O)NC(=O)C(C)(N2C(=O)c3c(F)c(F)c(F)c(F)c3C2=O)C1=O (stereo unspecified)")
42.7
>>> experimental_result("CN1[C@@H](CC(=O)c2ccccc2)CCC[C@H]1CC(=O)c1ccccc1")
101
>>> experimental_result("C/C(=C(\\c1ccc(OCCN2CCOCC2)cc1)c1ccc(OC(=O)Cc2ccccc2)cc1)c1ccc(Cl)cc1")
95.2
>>> experimental_result("C[C@]12CC[C@H]3[C@@H](CC=C4c5nc(N)sc5CC[C@@]43C)[C@@H]1CC[C@@H]2O")
107
>>> experimental_result("Cc1cc[c-]cc1.Fc1c[c-]c(-c2ccccn2)c(F)c1.N#CCC[PH+](CCC#N)c1ccccc1.[Pt+2]")
64.9
>>> experimental_result("CCOC(=O)P(=O)(OCC)OCC")
112
>>> experimental_result("CCOP(=O)(OCC)C(=O)N(CC)CC")
111
>>> experimental_result("CC[C@H](C)[C@H](NC(=O)CN(C)C)C(=O)N(C)[C@H](C[C@@H](OC(C)=O)c1nc(C(=O)NC23C4C5C2C2C3C4C52C(=O)OC)cs1)C(C)C (stereo partly specified)")
71.4
>>> experimental_result("O=C(O)c1ccccc1N(CCO)CCCl")
92.3
>>> experimental_result("CC[PH+](CC)CC.O=COC1OC([S-])C(OC=O)C(OC=O)C1OC=O.[Au+] (stereo unspecified)")
-98.5
>>> experimental_result("CC(=O)C(N)Cc1ccccc1 (stereo unspecified)")
105
>>> experimental_result("Oc1cc(Cl)ccc1Oc1ccc(Cl)cc1Cl")
86.2
>>> experimental_result("O=Cc1cn(Cc2ccccc2)c2ccccc12")
-20.3
>>> experimental_result("CCCC[C@H]1C(=O)O[C@H](C)[C@H](NC(=O)c2cccc(NC=O)c2O)C(=O)O[C@@H](C)[C@@H]1OC(=O)CC(C)C")
-27.7
>>> experimental_result("O=CC1(c2ccccc2)CCN(Cc2ccccc2)CC1")
107
>>> experimental_result("O=[N+]([O-])c1ccc(OCc2ccc(S(=O)(=O)F)c(Cl)c2)c(Cl)c1")
99
>>> experimental_result("S=P(SP(=S)(c1ccccc1)c1ccccc1)(c1ccccc1)c1ccccc1")
95.2
>>> experimental_result("O=C1CN2CCC1CC2")
101
>>> experimental_result("N#CC(N)c1ccccc1 (stereo unspecified)")
101
>>> experimental_result("Nc1ccc2c(c1)Cc1cc(N)ccc1-2")
107
>>> experimental_result("CC[C@H](C)[C@H](NC(=O)C12CC(NC)(C1)C2)C(=O)N(C)[C@H](C[C@@H](OC(C)=O)c1nc(C(=O)N[C@@H](Cc2ccccc2)C[C@H](C)C(=O)OC)cs1)C(C)C")
52.7
>>> experimental_result("C[C@]12CCc3sc(Nc4ccc(F)cc4F)nc3C1=CC[C@@H]1[C@@H]2CC[C@]2(C)C(=O)CC[C@@H]12")
91.8
>>> experimental_result("C[N+]12CCC34C5=CC(=O)C(=O)C=C5[N+]5(C)C(=O)CC6OCC=C(C1)C(CC32)C6C45 (stereo unspecified)")
106
>>> experimental_result("Cc1cc(N)ccc1N")
96
>>> experimental_result("C/C(=C\\c1ccn(-c2ccc(N)c(C(F)(F)F)c2)n1)[C@@H]1C[C@@H]2O[C@]2(C)CCC[C@H](C)[C@H](O)[C@@H](C)C(=O)C(C)(C)[C@@H](O)CC(=O)O1")
23
>>> experimental_result("Oc1ccccc1C=NCCN=Cc1ccccc1O")
104
>>> experimental_result("C[C@]12CC[C@@H](OC(=O)N(CCCl)N=O)C[C@@H]1CC[C@@H]1[C@@H]2CC[C@]2(C)C(=O)CC[C@@H]12")
114
>>> experimental_result("CN1CCC2(CC1)C(C#N)C(=O)NC(=O)C2C#N (stereo unspecified)")
104
>>> experimental_result("C[C@@H]1C/C=C\\C(=O)O[C@H](/C=C/C#C/C=C/C(C)(C)[C@@H](O)c2cccc(O)c2Br)[C@@H](C)/C=C/[C@H](C)C[C@H](OC(N)=O)C1")
46.8
>>> experimental_result("O=C(O)C(F)F")
106
